biological target: human PAH with the R408W mutation (Homo sapiens, UniProt P00439, R408W); construct: expressed in transfected cells; test: Cell Based Phenylalanine Flux Assay; details: A375 cells expressing human R408W PAH; 24 hrs with compound, then sepiapterin and 13C9,15N-Phenylalanine for 4 hours; 13C-Tyrosine by LC-MS; average where tested multiple times; read-out: AC50;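 note: Ten-point dose curve from 2-fold serial dilutions, run in duplicate at 0.5% DMSO final, tracer step used 20 µM sepiapterin and 800 µM labeled phenylalanine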
Sequence (P00439 whole entry R408W): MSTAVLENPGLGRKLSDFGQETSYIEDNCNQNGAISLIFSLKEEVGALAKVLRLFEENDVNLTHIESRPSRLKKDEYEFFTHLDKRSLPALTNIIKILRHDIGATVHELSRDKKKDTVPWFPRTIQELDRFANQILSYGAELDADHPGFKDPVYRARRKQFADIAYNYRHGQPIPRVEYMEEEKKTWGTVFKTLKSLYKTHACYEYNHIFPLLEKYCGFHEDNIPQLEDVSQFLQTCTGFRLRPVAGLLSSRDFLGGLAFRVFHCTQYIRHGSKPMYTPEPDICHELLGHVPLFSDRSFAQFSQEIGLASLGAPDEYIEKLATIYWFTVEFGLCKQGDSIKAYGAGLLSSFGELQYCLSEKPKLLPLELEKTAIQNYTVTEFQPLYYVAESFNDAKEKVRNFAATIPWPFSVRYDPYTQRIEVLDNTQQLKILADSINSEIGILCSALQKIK
MEASURED_PARAMETER: AC50

Use the examples below as a reference point.
COMPOUND	EXPERIMENTAL_TARGET	AC50
Cn1cc(-c2ccc3c(C(=O)N4CCc5[nH]cnc5[C@H]4c4cc5c(C(F)(F)F)cccn5n4)cnn3c2)cn1 [Example 1552]	human PAH with the R408W mutation (Homo sapiens, UniProt P00439, R408W)	< 500 nM
O=C(c1nnc(-c2cnn(C(F)(F)F)c2)o1)N1CCc2[nH]cnc2[C@@H]1c1cc2c(C(F)(F)F)cccn2n1 [Example 1539]	human PAH with the R408W mutation (Homo sapiens, UniProt P00439, R408W)	> 5000 nM
FC(F)Oc1cccn2nc([C@@H]3c4nc[nH]c4CCN3c3ccc(C(F)(F)F)cn3)cc12 [Example 2272]	human PAH with the R408W mutation (Homo sapiens, UniProt P00439, R408W)	< 500 nM
Cc1cccn2nc([C@H]3c4nc[nH]c4CCN3C(=O)c3oc(-c4ccccn4)nc3C3CC3)cc12 [Example 2121]	human PAH with the R408W mutation (Homo sapiens, UniProt P00439, R408W)	1000 to 5000 nM
O=C(c1nnc(-c2ccn(C(F)(F)F)n2)o1)N1CCc2[nH]cnc2[C@H]1c1cc2c(F)cccn2n1 [Example 1482]	human PAH with the R408W mutation (Homo sapiens, UniProt P00439, R408W)	< 500 nM
Clc1cccn2nc([C@@H]3c4nc[nH]c4CCN3c3nnc(-c4ccncn4)o3)cc12 [Example 2182]	human PAH with the R408W mutation (Homo sapiens, UniProt P00439, R408W)	500 to 1000 nM

Task: Find the recorded AC50 belonging to c1ccc2oc(N3CCc4[nH]cnc4[C@H]3c3cc4ccccn4n3)nc2c1 [Example 1577] and report it.
Output: 500 to 1000 nM
